Hello, the source for this data is the supplement of paper PMC10567573, in case you need it.

B1: CASP6 (parent)
chain: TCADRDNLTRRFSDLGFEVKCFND

# Variants of: B1
# runDescription: protein stability index of a GFP-peptide fusion (GPS, HEK-293T) (PSI 1-6); higher = more stable;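 note: lentivirally expressed fusions sorted by FACS into six bins by GFP to DsRed ratio, PSI derived from sequencing read proportions per bin multiplied by bin number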
# conditionSet: c terminus: a fixed tail appended
reportedEndpoint: protein stability index
Reply with just the number.

   variantidentifier  observedmeasurement
0                D4P                 2.75
1               C21E                  4.3
2               D14A                 3.23

Query: Any idea what protein stability index was measured for S13M ?
Reply: 2.71

Query: Name the recorded protein stability index for R11D .
Reply: 4.12

Query: Entry R11A : reported protein stability index = ?
Reply: 3.5
